Tested on: OVCAR-8 complex spheroid, growth inhibition
Assay: Anticancer human tumor OVCAR-8 cell line growth inhibition [Asc];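 further: spheroids exposed to agents for 7 days before readout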
Details: curve of first compound; second compound 3 µM
metric-name: IC50

- molecule: "C=CC(=O)N1CCN(c2nc(=O)n(-c3c(C)ccnc3C(C)C)c3nc(-c4c(O)cccc4F)c(F)cc23)C(C)C1 (stereo unspecified) + CCN1C(C(=O)NC23CCC(C(=O)O)(CC2)CC3)C(c2cccc(Cl)c2F)C2(C(=O)Nc3cc(Cl)ccc32)C12CCCCC2"
  result: "> 10 µM"

* * *

System: OVCAR-8 complex spheroid, growth inhibition
Assay: Anticancer human tumor OVCAR-8 cell line growth inhibition [Asc];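 further: spheroids exposed to agents for 7 days before readout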;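 on viability, T/C: percent viability relative to DMSO vehicle wells taken as 100%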
Details: second compound 0.01 µM; first compound 0.00316 µM; stronger effect = lower value

- compound: "CCN1CCN(Cc2ccc(Nc3ncc(F)c(-c4cc(F)c5nc(C)n(C(C)C)c5c4)n3)nc2)CC1 + CNC(C)C(=O)NC1CN(S(=O)(=O)c2cccc(S(=O)(=O)N3CCC4CCC(C(=O)NC(c5ccccc5)c5ccccc5)N4C(=O)C(NC(=O)C(C)NC)C3)c2)CCC2CCC(C(=O)NC(c3ccccc3)c3ccccc3)N2C1=O"
  viability, T/C: "91.3%"
- compound: "NC1CCC(NC2CC2c2ccccc2)CC1 (stereo not drawn) + CNC(C)C(=O)NC1CN(S(=O)(=O)c2cccc(S(=O)(=O)N3CCC4CCC(C(=O)NC(c5ccccc5)c5ccccc5)N4C(=O)C(NC(=O)C(C)NC)C3)c2)CCC2CCC(C(=O)NC(c3ccccc3)c3ccccc3)N2C1=O"
  viability, T/C: "119%"
- compound: "Cn1ncnc1[C@H]1c2n[nH]c(=O)c3cc(F)cc(c23)N[C@@H]1c1ccc(F)cc1 + CNC(C)C(=O)NC1CN(S(=O)(=O)c2cccc(S(=O)(=O)N3CCC4CCC(C(=O)NC(c5ccccc5)c5ccccc5)N4C(=O)C(NC(=O)C(C)NC)C3)c2)CCC2CCC(C(=O)NC(c3ccccc3)c3ccccc3)N2C1=O"
  viability, T/C: "102%"

* * *

System: OVCAR-8 complex spheroid, growth inhibition
Experiment: Anticancer human tumor OVCAR-8 cell line growth inhibition [Asc];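 further: spheroids exposed to agents for 7 days before readout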;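 on viability, T/C: percent viability relative to DMSO vehicle wells taken as 100%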
Conditions: second compound 3.16 µM; first compound 0.01 µM; stronger effect = lower value
metric-name: viability, T/C (%)

- compound: "COc1c(OCCCN2CCOCC2)ccc2c3n(c(=NC(=O)c4cnc(N)nc4)nc12)CCN3 + Cc1c(S(C)(=O)=O)c(-c2cc(F)cc(N3CCN(c4ccc(NS(=O)(=O)c5ccc(NC(CCN6CCC(C(=O)OCCCP(=O)(O)O)CC6)CSc6ccccc6)c(S(=O)(=O)C(F)(F)F)c5)cc4)CC3)c2)c(-c2ccc(Cl)cc2)n1C(C)C"
  metric-name: "viability, T/C"
  quantitative-result: 98.8
- compound: "CCN1CCN(Cc2ccc(Nc3ncc(F)c(-c4cc(F)c5nc(C)n(C(C)C)c5c4)n3)nc2)CC1 + Cc1c(S(C)(=O)=O)c(-c2cc(F)cc(N3CCN(c4ccc(NS(=O)(=O)c5ccc(NC(CCN6CCC(C(=O)OCCCP(=O)(O)O)CC6)CSc6ccccc6)c(S(=O)(=O)C(F)(F)F)c5)cc4)CC3)c2)c(-c2ccc(Cl)cc2)n1C(C)C"
  metric-name: "viability, T/C"
  quantitative-result: 92.3
- compound: "CNC(C)C(=O)NC1CN(S(=O)(=O)c2cccc(S(=O)(=O)N3CCC4CCC(C(=O)NC(c5ccccc5)c5ccccc5)N4C(=O)C(NC(=O)C(C)NC)C3)c2)CCC2CCC(C(=O)NC(c3ccccc3)c3ccccc3)N2C1=O (stereo not drawn) + Cc1c(S(C)(=O)=O)c(-c2cc(F)cc(N3CCN(c4ccc(NS(=O)(=O)c5ccc(NC(CCN6CCC(C(=O)OCCCP(=O)(O)O)CC6)CSc6ccccc6)c(S(=O)(=O)C(F)(F)F)c5)cc4)CC3)c2)c(-c2ccc(Cl)cc2)n1C(C)C"
  metric-name: "viability, T/C"
  quantitative-result: 86.8

* * *

System: OVCAR-8 complex spheroid, growth inhibition
Assay: Anticancer human tumor OVCAR-8 cell line growth inhibition [Asc];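 further: spheroids exposed to agents for 7 days before readout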
Conditions: curve of first compound; second compound 0.01 µM

- compound: "COc1c(OCCCN2CCOCC2)ccc2c3n(c(=NC(=O)c4cnc(N)nc4)nc12)CCN3 + CNC(C)C(=O)NC1CN(S(=O)(=O)c2cccc(S(=O)(=O)N3CCC4CCC(C(=O)NC(c5ccccc5)c5ccccc5)N4C(=O)C(NC(=O)C(C)NC)C3)c2)CCC2CCC(C(=O)NC(c3ccccc3)c3ccccc3)N2C1=O"
  IC50: "> 1 µM"
- compound: "NC(=O)C(=Cn1cnc(-c2cc(C(F)(F)F)cc(C(F)(F)F)c2)n1)c1cncnc1 + CNC(C)C(=O)NC1CN(S(=O)(=O)c2cccc(S(=O)(=O)N3CCC4CCC(C(=O)NC(c5ccccc5)c5ccccc5)N4C(=O)C(NC(=O)C(C)NC)C3)c2)CCC2CCC(C(=O)NC(c3ccccc3)c3ccccc3)N2C1=O"
  IC50: "> 0.3 µM"
- compound: "Cc1nc(N2CCC3(CC2)COC(C)C3N)c(CO)nc1Sc1ccnc(N)c1Cl (stereo not drawn) + CNC(C)C(=O)NC1CN(S(=O)(=O)c2cccc(S(=O)(=O)N3CCC4CCC(C(=O)NC(c5ccccc5)c5ccccc5)N4C(=O)C(NC(=O)C(C)NC)C3)c2)CCC2CCC(C(=O)NC(c3ccccc3)c3ccccc3)N2C1=O"
  IC50: "> 3 µM"

* * *

System: OVCAR-8 complex spheroid, growth inhibition
Assay: Anticancer human tumor OVCAR-8 cell line growth inhibition [Asc];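 further: spheroids exposed to agents for 7 days before readout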
Conditions: curve of first compound; second compound 3.16 µM
IC50 values by entry

- compound: "Cn1ncnc1[C@H]1c2n[nH]c(=O)c3cc(F)cc(c23)N[C@@H]1c1ccc(F)cc1 + Cc1c(S(C)(=O)=O)c(-c2cc(F)cc(N3CCN(c4ccc(NS(=O)(=O)c5ccc(NC(CCN6CCC(C(=O)OCCCP(=O)(O)O)CC6)CSc6ccccc6)c(S(=O)(=O)C(F)(F)F)c5)cc4)CC3)c2)c(-c2ccc(Cl)cc2)n1C(C)C"
  measured-target: "OVCAR-8 complex spheroid, growth inhibition"
  IC50: "> 100 nM"
- compound: "NC(=O)C(=Cn1cnc(-c2cc(C(F)(F)F)cc(C(F)(F)F)c2)n1)c1cncnc1 + Cc1c(S(C)(=O)=O)c(-c2cc(F)cc(N3CCN(c4ccc(NS(=O)(=O)c5ccc(NC(CCN6CCC(C(=O)OCCCP(=O)(O)O)CC6)CSc6ccccc6)c(S(=O)(=O)C(F)(F)F)c5)cc4)CC3)c2)c(-c2ccc(Cl)cc2)n1C(C)C"
  measured-target: "OVCAR-8 complex spheroid, growth inhibition"
  IC50: "131 nM"
- compound: "C=C(F)C(=O)N1CCN(c2nc(OCC3CCCN3C)nc3c2CCN(c2cccc4cccc(Cl)c24)C3)CC1CC#N (configuration not stated) + Cc1c(S(C)(=O)=O)c(-c2cc(F)cc(N3CCN(c4ccc(NS(=O)(=O)c5ccc(NC(CCN6CCC(C(=O)OCCCP(=O)(O)O)CC6)CSc6ccccc6)c(S(=O)(=O)C(F)(F)F)c5)cc4)CC3)c2)c(-c2ccc(Cl)cc2)n1C(C)C"
  measured-target: "OVCAR-8 complex spheroid, growth inhibition"
  IC50: "2250 nM"
- compound: "Cc1nc(N2CCC3(CC2)COC(C)C3N)c(CO)nc1Sc1ccnc(N)c1Cl (configuration not stated) + Cc1c(S(C)(=O)=O)c(-c2cc(F)cc(N3CCN(c4ccc(NS(=O)(=O)c5ccc(NC(CCN6CCC(C(=O)OCCCP(=O)(O)O)CC6)CSc6ccccc6)c(S(=O)(=O)C(F)(F)F)c5)cc4)CC3)c2)c(-c2ccc(Cl)cc2)n1C(C)C"
  measured-target: "OVCAR-8 complex spheroid, growth inhibition"
  IC50: "> 3000 nM"
- compound: "C=CC(=O)N1CCN(c2nc(=O)n(-c3c(C)ccnc3C(C)C)c3nc(-c4c(O)cccc4F)c(F)cc23)C(C)C1 (configuration not stated) + Cc1c(S(C)(=O)=O)c(-c2cc(F)cc(N3CCN(c4ccc(NS(=O)(=O)c5ccc(NC(CCN6CCC(C(=O)OCCCP(=O)(O)O)CC6)CSc6ccccc6)c(S(=O)(=O)C(F)(F)F)c5)cc4)CC3)c2)c(-c2ccc(Cl)cc2)n1C(C)C"
  measured-target: "OVCAR-8 complex spheroid, growth inhibition"
  IC50: "> 10000 nM"
- compound: "CCN1CCN(Cc2ccc(Nc3ncc(F)c(-c4cc(F)c5nc(C)n(C(C)C)c5c4)n3)nc2)CC1 + Cc1c(S(C)(=O)=O)c(-c2cc(F)cc(N3CCN(c4ccc(NS(=O)(=O)c5ccc(NC(CCN6CCC(C(=O)OCCCP(=O)(O)O)CC6)CSc6ccccc6)c(S(=O)(=O)C(F)(F)F)c5)cc4)CC3)c2)c(-c2ccc(Cl)cc2)n1C(C)C"
  measured-target: "OVCAR-8 complex spheroid, growth inhibition"
  IC50: "> 1000 nM"
- compound: "CCN1C(C(=O)NC23CCC(C(=O)O)(CC2)CC3)C(c2cccc(Cl)c2F)C2(C(=O)Nc3cc(Cl)ccc32)C12CCCCC2 (configuration not stated) + Cc1c(S(C)(=O)=O)c(-c2cc(F)cc(N3CCN(c4ccc(NS(=O)(=O)c5ccc(NC(CCN6CCC(C(=O)OCCCP(=O)(O)O)CC6)CSc6ccccc6)c(S(=O)(=O)C(F)(F)F)c5)cc4)CC3)c2)c(-c2ccc(Cl)cc2)n1C(C)C"
  measured-target: "OVCAR-8 complex spheroid, growth inhibition"
  IC50: "> 3000 nM"
